Organism: Homo sapiens
Assay: Selectivity index, ratio of IC50 for human recombinant microsomal MAOA to IC50 for human recombinant microsomal MAOB
The entries below are paired with their reported Ratio IC50.

record-smiles	Ratio IC50
COc1ccc2oc(=O)c(C(=O)Nc3cccc(Cl)c3)cc2c1	> 11100
COc1ccc2oc(=O)c(C(=O)Nc3cccc(C)c3)cc2c1	> 2120
Cc1cccc(NC(=O)c2cc3cc(C)ccc3oc2=O)c1	> 13300
COc1ccc2occ(C(=O)Nc3cccc(Cl)c3)c(=O)c2c1	> 25400
Cc1ccc2occ(C(=O)Nc3ccc(Cl)cc3)c(=O)c2c1	> 2200
COc1ccc2occ(C(=O)Nc3ccc(Cl)cc3)c(=O)c2c1	> 9700
Cc1ccc2occ(C(=O)Nc3cccc(Cl)c3)c(=O)c2c1	> 23800
COc1ccc2occ(C(=O)Nc3cccc(C)c3)c(=O)c2c1	> 4590
COc1ccc2oc(=O)c(C(=O)Nc3ccccc3)cc2c1	> 16800
Cc1ccc2oc(=O)c(C(=O)Nc3ccccc3)cc2c1	> 6530
COc1ccc2occ(C(=O)Nc3ccc(O)cc3)c(=O)c2c1	> 148
Cc1ccc2oc(=O)c(C(=O)Nc3cccc(O)c3)cc2c1	> 2200
Cc1ccc(NC(=O)c2cc3cc(C)ccc3oc2=O)cc1	> 7190
Cc1ccc2occ(C(=O)Nc3ccc(O)cc3)c(=O)c2c1	> 195
Cc1ccc2oc(=O)c(C(=O)Nc3cccc(Cl)c3)cc2c1	> 19700
COc1ccc2occ(C(=O)Nc3ccccc3)c(=O)c2c1	> 2390
Cc1ccc(NC(=O)c2coc3ccc(C)cc3c2=O)cc1	> 660
COc1ccc2oc(=O)c(C(=O)Nc3cccc(O)c3)cc2c1	> 447
Cc1ccc2oc(=O)c(C(=O)Nc3ccc(O)cc3)cc2c1	> 161
Cc1ccc2occ(C(=O)Nc3ccccc3)c(=O)c2c1	> 4680
Cc1ccc2occ(C(=O)Nc3cccc(O)c3)c(=O)c2c1	> 1280
COc1ccc2occ(C(=O)Nc3cccc(O)c3)c(=O)c2c1	> 881
COc1ccc2oc(=O)c(C(=O)Nc3ccc(Cl)cc3)cc2c1	> 5290
Cc1ccc2oc(=O)c(C(=O)Nc3ccc(Cl)cc3)cc2c1	> 9030
COc1ccc2oc(=O)c(C(=O)Nc3ccc(C)cc3)cc2c1	> 5150
COc1ccc2occ(C(=O)Nc3ccc(C)cc3)c(=O)c2c1	> 474
Cc1cccc(NC(=O)c2coc3ccc(C)cc3c2=O)c1	> 5850
